- System: Escherichia coli
- ASSAY_INFO: Antibacterial activity against Escherichia coli BER1 producing beta-lactamase pI 5.2 and pI 5.4 by microdilution method
- Assay type: functional
ENDPOINT: log10(MIC) (log10 of the value in µg/mL)
Could you please treat all values as log10 of MIC in µg/mL?

Challenge: What is its log10(MIC) for Escherichia coli? Entry: C[C@H]1[C@H](NC(=O)/C(=N\OC(C)(C)C(=O)O)c2csc(N)n2)C(=O)N1S(=O)(=O)O [AZTREONAM]
Response given: 0.00

Challenge: Entry to check: CO/N=C(\C(=O)N[C@@H]1C(=O)N2C(C(=O)O)=C(COC(C)=O)CS[C@H]12)c1csc(N)n1 [CEFOTAXIME]
Response given: -0.60

Challenge: Entry to check: CO[C@@]1(NC(=O)Cc2cccs2)C(=O)N2C(C(=O)O)=C(COC(N)=O)CS[C@@H]21 [CEFOXITIN]
Response given: -0.60

Challenge: Entry to check: `CO/N=C(\C(=O)N[C@@H]1C(=O)N2C(C(=O)[O-])=C(C[N+]3(C)CCCC3)CS[C@H]12)c1csc(N)n1`
Response given: 0.60

Challenge: Entry to check: CCN1CCN(C(=O)N[C@@H](C(=O)N[C@@H]2C(=O)N3[C@@H]2SC(C)(C)[C@@H]3C(=O)O)c2ccccc2)C(=O)C1=O [PIPERACILLIN]
Response given: 3.31

Challenge: Entry to check: CC(C)(O/N=C(\C(=O)N[C@@H]1C(=O)N2C(C(=O)[O-])=C(C[n+]3ccccc3)CS[C@H]12)c1csc(N)n1)C(=O)O [CEFTAZIDIME]
Response given: 1.20

###

- ASSAY_INFO: Inhibition of Escherichia coli CF0042 beta-lactamase TEM-35
ENDPOINT: pIC50
Recall that pIC50 is obtained by taking minus log10 of the concentration measured in molar.

Challenge: Data request, read-out pIC50, for O=C(O)[C@H]1/C(=C/CO)O[C@@H]2CC(=O)N21 [CLAVULANIC ACID]
Response given: 4.57

Challenge: Entry to check: C[C@]1(Cn2ccnn2)[C@H](C(=O)O)N2C(=O)C[C@H]2S1(=O)=O [TAZOBACTAM]
Response given: 5.74

###

- Tested on: Escherichia coli
- ASSAY_INFO: Antibacterial activity against Escherichia coli DH5alpha producing beta-lactamase TEM-12 by microdilution method
- Type: functional
What MIC was measured for each of the following?
Write the number in µg/mL without appending the unit.

Challenge: What is its MIC for Escherichia coli? Entry: CO[C@@]1(NC(=O)Cc2cccs2)C(=O)N2C(C(=O)O)=C(COC(N)=O)CS[C@@H]21 [CEFOXITIN]
Response given: 4

Challenge: Entry to check: CO/N=C(\C(=O)N[C@@H]1C(=O)N2C(C(=O)O)=C(COC(C)=O)CS[C@H]12)c1csc(N)n1 [CEFOTAXIME]
Response given: 0.12

Challenge: Entry to check: CC(=O)OCC1=C(C(=O)O)N2C(=O)[C@@H](NC(=O)Cc3cccs3)[C@H]2SC1 [CEPHALOTHIN]
Response given: 8

Challenge: Entry to check: CC(C)(O/N=C(\C(=O)N[C@@H]1C(=O)N2C(C(=O)[O-])=C(C[n+]3ccccc3)CS[C@H]12)c1csc(N)n1)C(=O)O [CEFTAZIDIME]
Response given: 32

Challenge: Entry to check: CO/N=C(\C(=O)N[C@@H]1C(=O)N2C(C(=O)O)=C(COC(N)=O)CS[C@H]12)c1ccco1 [CEFUROXIME]
Response given: 8

Challenge: Entry to check: `CO/N=C(\C(=O)N[C@@H]1C(=O)N2C(C(=O)[O-])=C(C[N+]3(C)CCCC3)CS[C@H]12)c1csc(N)n1`
Response given: 1

Challenge: Entry to check: C[C@@H](O)[C@H]1C(=O)N2C(C(=O)O)=C(SCCNC=N)C[C@H]12 [IMIPENEM ANHYDROUS]
Response given: 0.25

Challenge: Entry to check: C[C@H]1[C@H](NC(=O)/C(=N\OC(C)(C)C(=O)O)c2csc(N)n2)C(=O)N1S(=O)(=O)O [AZTREONAM]
Response given: 4
